# Test system: SN12C renal
# Experiment Description: NCI-60 one-dose screen, 48 h
# Condition Details: 10 µM unless noted
# Method: Growth inhibition of the SN12C human tumor cell line is measured as a screen for anti-cancer activity. Cells are grown in 96 well plates and exposed to the test compound for 48 hours. Compounds are tested at a single concentration, which is 10^-5 M for most compounds. The reported endpoint is percent growth (GI% or GIPRCNT), where numbers from 0 - 100% represent growth inhibition, and numbers from -100% - 0 represent cell death. For example, a value of 40 represents 60% growth inhibition. […]
Compounds without any hit were thinned out: in the full panel of roughly 83,000, 20% have a hit. Active and inactive are the calls of the source. How the source made its calls: active means growth percent below 10; inactive means the rest.
Give one outcome, nothing more. List: t = active, f = inactive

Use these answered entries as a reference point.
| Compound | Label |
| --- | --- |
| O=C1/C(=C\c2cn(-c3nc(N4CCOCC4)nc(N4CCOCC4)n3)c3ccccc23)c2ccccc2N1c1c(Cl)cccc1Cl | f |
| CC(=O)NCCN | f |
| OCCN1CCCN(CCCN2c3ccccc3Sc3ccc(C(F)(F)F)cc32)CC1 | f |
| Cc1cc2c(-c3nc4ccccc4n3C)c(O)c(O)cc2c(O)c1-c1c(C)cc2c(-c3nc4ccccc4n3C)c(O)c(O)cc2c1O | f |

(Q) Identify the outcome logged in this assay for the compound shown: `O=C(N/N=C/c1coc2ccccc2c1=O)c1cc2oc(-c3ccccc3)cc2[nH]1`
(A) f

(Q) Identify the outcome logged in this assay for the compound shown: `COc1cc(-c2nn(-c3ccc(NC(=O)c4ccc(Cl)c(Cl)c4)cc3)cc2-c2ccncc2)ccc1Cl`
(A) f

(Q) Identify the outcome logged in this assay for the compound shown: `CSCc1ncc(-c2ccc(C(F)(F)F)cc2)c(NC2CCCCCC2)n1`
(A) f

(Q) Identify the outcome logged in this assay for the compound shown: `Cc1nn(-c2ccccc2)c(N)c1N=C1NC(=O)/C(=C/c2ccc(Cl)cc2)S1`
(A) f

(Q) Identify the outcome logged in this assay for the compound shown: `CC(=O)Nc1nc(C)c(C(=O)N/N=C/c2cccs2)s1`
(A) f

(Q) Identify the outcome logged in this assay for the compound shown: `CCCCCCCCC/C(=N\NC(=O)c1ccncc1)c1ccc(O)c(O)c1O`
(A) f

(Q) Identify the outcome logged in this assay for the compound shown: `COc1ccc2c(N)ncc(C#Cc3cc(C(=O)Nc4ccc(CN5CCN(C)CC5)c(C(F)(F)F)c4)cnc3C)c2c1`
(A) t

(Q) Identify the outcome logged in this assay for the compound shown: `C=CCNC(=S)NNc1ccc([N+](=O)[O-])cn1`
(A) f

(Q) Identify the outcome logged in this assay for the compound shown: `OC(c1ccccc1)(c1ccccc1)C(F)(F)F`
(A) f

(Q) Identify the outcome logged in this assay for the compound shown: `c1ccc(-c2cn3ccnc3c(-c3ccc4ncn(C5CCCCC5)c4c3)n2)cc1`
(A) f

(Q) Identify the outcome logged in this assay for the compound shown: `CN(CCC#N)c1ccc(/C=C(\C#N)c2cccc(C(F)(F)F)c2)cc1`
(A) f

(Q) Identify the outcome logged in this assay for the compound shown: `CCCCCCCCCCCCCCCCNC(=S)N/N=C/c1ccc(OC)cc1`
(A) f

(Q) Identify the outcome logged in this assay for the compound shown: `N=C(N)N=Nc1ccc(NN=C(N)N)cc1`
(A) f

(Q) Identify the outcome logged in this assay for the compound shown: COc1cc(/C=C/C(=O)c2ccc(F)cc2)ccc1OCCCCOc1cc2c(cc1OC)C(=O)N1CCCC1C=N2 (stereo not drawn)
(A) t

(Q) Identify the outcome logged in this assay for the compound shown: `COc1cc(-c2nn(-c3ccc(NC(=O)Nc4ccc(Cl)c(Cl)c4)cc3)cc2-c2ccncc2)ccc1Cl`
(A) f

(Q) Identify the outcome logged in this assay for the compound shown: `CCCC(=O)NNc1[nH]c(-c2ccc(OC)cc2)cc1C(=O)OCC`
(A) f

(Q) Identify the outcome logged in this assay for the compound shown: `CCN(CCO)CCNc1ccc(C)c2sc3cc(OC)ccc3c(=O)c12`
(A) f

(Q) Identify the outcome logged in this assay for the compound shown: `CC(=O)Nc1ccc(CC#N)cc1Br`
(A) f

(Q) Identify the outcome logged in this assay for the compound shown: `CC1=C(C)C[C@]2(C(=O)O[C@H]3CCCC[C@@H]32)[S@](=O)C1`
(A) f

(Q) Identify the outcome logged in this assay for the compound shown: `COc1cc(-c2cc3cnccc3c3nc(N)c4ccncc4c23)cc(OC)c1OC`
(A) f

(Q) Identify the outcome logged in this assay for the compound shown: `Cc1nnc(/N=C2\NC(=O)/C(=C/C=C/c3ccccc3)S2)s1`
(A) f

(Q) Identify the outcome logged in this assay for the compound shown: `CCn1cnc(C[C@H](NC(=O)[C@@H](NC(=O)Nc2cc(C(F)(F)F)cc(C(F)(F)F)c2)C(C)C)C(=O)OC)c1`
(A) t

----------
# Test system: PC-3 prostate
# Experiment Description: NCI-60 one-dose screen, 48 h
# Condition Details: 10 µM unless noted
The panel holds about 83,000 compounds, 20% with a hit somewhere; the sample as a whole holds those more often. Calls of active or inactive are those of the source. Rule for the calls: active = growth percent below 10; inactive = the rest.
Give one outcome, nothing more. List: 1 for active, -1 for inactive

| Chemical Smiles | Label |
| --- | --- |
| O=C(CN1CCN(c2cccc(Cl)c2)CC1)N1CCN(c2nnc(-c3ccc(Cl)cc3)c(-c3ccc(Cl)cc3)n2)CC1 | -1 |
| O=C(N/N=C\c1ccc(-c2ccc(Br)cc2)o1)c1cc2oc(-c3cccc(C(F)(F)F)c3)cc2[nH]1 | -1 |
| COC(=O)c1cc(Nc2ccc(O)c3c2C(=O)c2c([N+](=O)[O-])ccc(O)c2C3=O)cc(C(=O)OC)c1 | -1 |

(Q) Identify the outcome logged in this assay for the molecule shown: `COc1ccc(/C=C(/C(=O)N2CCN(c3ccc(C)cc3)CC2)c2cc(OC)c(OC)c(OC)c2)cc1N`
(A) 1

----------
# Test system: OVCAR-4 ovarian
# Experiment Description: NCI-60 one-dose screen, 48 h
# Condition Details: 10 µM unless noted
Compounds without any hit were thinned out: in the full panel of roughly 83,000, 20% have a hit. Activity calls are given as the source filed them. How the source made its calls: active means growth percent below 10; inactive means the rest.
Give one outcome, nothing more. List: true (active), false (inactive)

Use these answered entries as a reference point.
| Molecule | Label |
| --- | --- |
| COc1ccccc1CNCCCN1C(=O)c2ccc3c4c(ccc(c24)C1=O)C(=O)N(CCCNCc1ccccc1OC)C3=O | true |
| CCCOC(=O)c1c(C)n(C)c2scc[n+]12 | false |
| COc1ccc(/C(=C(\c2ccccc2)[N+](=O)[O-])c2ccc(OCCN3CCCC3)cc2)cc1 | false |
| CCOc1ccc2nc3ccc(Cl)cc3nc2c1 | false |
| Cc1c(O)c(N=Nc2ccc(C(=O)O)c(O)c2)c2ccccc2c1O | false |

(Q) Identify the outcome logged in this assay for the molecule shown: `CCOc1nc(-c2ccccc2)cc2c(O)c(C(=O)N/N=C/c3ccccc3O)[nH]c(=O)c12`
(A) false

(Q) Identify the outcome logged in this assay for the molecule shown: `Cc1cc2c(-c3nc4ccccc4[nH]3)c(O)c(O)cc2c(O)c1-c1c(C)cc2c(-c3nc4ccccc4[nH]3)c(O)c(O)cc2c1O`
(A) true

(Q) Identify the outcome logged in this assay for the molecule shown: O=c1c2c(c3ccccc3n1-c1ccccc1)NC(=S)NC2c1ccccc1 (stereo unspecified)
(A) false

(Q) Identify the outcome logged in this assay for the molecule shown: `CCCCCCCCCCCCCCCCCC1=NCCN1CCNC(C)=O`
(A) false

(Q) Identify the outcome logged in this assay for the molecule shown: `COC1=C(OC)C(=O)c2ccccc2C1=O`
(A) false

----------
# System: CCRF-CEM leukemia
# Experiment Description: NCI-60 one-dose screen, 48 h (100 = growth as untreated, 0 = no growth, -100 = all killed)
# Condition Details: 10 µM
This is part of a sample that, as a whole, favours compounds with a hit. Of some 83,000 tested, about 20% had one in any assay. Activity calls are given as the source filed them. The calls were made as follows: active = growth percent below 10; inactive = the rest.
Examples of compounds with documented growth follow.

| Compound | Tested Target | growth |
| --- | --- | --- |
| COC1NC(Cl)=C(C#N)C(C#N)(C#N)C1(C)C (stereo unspecified) | CCRF-CEM leukemia | 109% (inactive) |

For reference, reported growth for `O=C1/C(=N\c2cc(=O)[nH]n2S(=O)(=O)c2ccccc2)Nc2ccccc21` stands at 98.4% (inactive)

For reference, reported growth for Cc1ccc2c(O)c(O)cc(NC(C)CCCN)c2n1 (stereo unspecified) stands at 39.9% (inactive)

For reference, reported growth for `Cc1ccc(NCc2cn(-c3ccc(C(=O)O)cc3)nc2-c2ccc(C(=O)O)cc2)cc1` stands at 104% (inactive)

For reference, reported growth for C=CC1CN2CCC1CC2C(O)c1ccnc2ccc(OC)cc12 (stereo unspecified) stands at 106% (inactive)

For reference, reported growth for `CC/C(=N\Nc1nc2ccccc2n1C)c1ccccn1` stands at 7.72% (active)

For reference, reported growth for NC(=O)CC(NC(=O)COc1ccc(Cl)cc1Cl)C(=O)O (stereo unspecified) stands at 105% (inactive)

For reference, reported growth for `Cc1nnc(/N=C2\NC(=O)/C(=C/C=C/c3ccccc3)S2)s1` stands at 29.8% (inactive)

For reference, reported growth for `c1cc(C2CCCCC2)ccc1OCCCCCCN1CCNCC1` stands at -51.7% (active)
